Source: patent US20230357241A1

# assay-name: Pharmacokinetic study in mice
# Format: in vivo, male C57BL/6J mice
# test-context: male, C57BL/6J, plasma, 10 mg/kg; mouse, PO, 10 mpk
Structures can show the parent of a compound that is named as a salt.
measured-attribute: AUC(0-t) (µM·h)

1 = CNC(=O)c1nccc2c(-c3cnc(Nc4ccc(OC5CC5)nc4)cc3C)c[nH]c12 [Compound 1 hydrochloride]
2 = Cl.FC(F)(F)c1ccc(CNc2ccc(Cc3c[nH]c4ncc(Cl)cc34)cn2)cn1 [PLX-3397, Pexidartinib, reference compound]
Consider 1 and 2 . Which of these has its AUC(0-t) at a higher number? Refer to your chosen item by its label in the answer.
1
(1: 1650 µM·h, 2: 131 µM·h)

---

# assay-name: Pharmacokinetic study in rats
# Format: in vivo
# test-context: male, SD, plasma, 10 mg/kg; rat, PO, 10 mpk
measured-attribute: bioavailability (%)
// return numeric value only (unit: %, not printed)

# bioavailability of Cl.FC(F)(F)c1ccc(CNc2ccc(Cc3c[nH]c4ncc(Cl)cc34)cn2)cn1 [PLX-3397, Pexidartinib, reference compound] = 81

---

# assay-name: Pharmacokinetic study in rats
# Assay type: in vivo
# test-context: male, SD, plasma, 1 mg/kg; rat, IV, 1 mpk
Structures can show the parent of a compound that is named as a salt.
measured-attribute: AUC(0-t) (µM·h)

P = Cl.FC(F)(F)c1ccc(CNc2ccc(Cc3c[nH]c4ncc(Cl)cc34)cn2)cn1 [PLX-3397, Pexidartinib, reference compound]
Q = CNC(=O)c1nccc2c(-c3cnc(Nc4ccc(OC5CC5)nc4)cc3C)c[nH]c12 [Compound 1 hydrochloride]
Consider P and Q . Which of these has its AUC(0-t) at a higher number? Refer to your chosen item by its label in the answer.
Q
(Q: 66 µM·h, P: 8.49 µM·h)

---

# assay-name: Pharmacokinetic study in rats
# Type: in vivo
# test-context: male, SD, plasma, 10 mg/kg; rat, PO, 10 mpk
# Excerpt: This study was intended to explore the pharmacokinetics of the test compound in the plasma of male C57BL/6J mice and SD rats after intravenous and oral administrations. The animals were randomized into two groups of 3 male animals. The compounds were formulated as designated (vehicle: 0.5% MC), i.e., clear solutions for intravenous injection and clear or homogeneous suspensions for oral formulations. […]
measured-attribute: Tmax (h)
// return numeric value only (unit: h, not printed)

# Tmax of Cl.FC(F)(F)c1ccc(CNc2ccc(Cc3c[nH]c4ncc(Cl)cc34)cn2)cn1 [PLX-3397, Pexidartinib, reference compound] = 1.5

---

# assay-system: CSF-1R (Homo sapiens (Human))
# Sequence (P07333 20-972): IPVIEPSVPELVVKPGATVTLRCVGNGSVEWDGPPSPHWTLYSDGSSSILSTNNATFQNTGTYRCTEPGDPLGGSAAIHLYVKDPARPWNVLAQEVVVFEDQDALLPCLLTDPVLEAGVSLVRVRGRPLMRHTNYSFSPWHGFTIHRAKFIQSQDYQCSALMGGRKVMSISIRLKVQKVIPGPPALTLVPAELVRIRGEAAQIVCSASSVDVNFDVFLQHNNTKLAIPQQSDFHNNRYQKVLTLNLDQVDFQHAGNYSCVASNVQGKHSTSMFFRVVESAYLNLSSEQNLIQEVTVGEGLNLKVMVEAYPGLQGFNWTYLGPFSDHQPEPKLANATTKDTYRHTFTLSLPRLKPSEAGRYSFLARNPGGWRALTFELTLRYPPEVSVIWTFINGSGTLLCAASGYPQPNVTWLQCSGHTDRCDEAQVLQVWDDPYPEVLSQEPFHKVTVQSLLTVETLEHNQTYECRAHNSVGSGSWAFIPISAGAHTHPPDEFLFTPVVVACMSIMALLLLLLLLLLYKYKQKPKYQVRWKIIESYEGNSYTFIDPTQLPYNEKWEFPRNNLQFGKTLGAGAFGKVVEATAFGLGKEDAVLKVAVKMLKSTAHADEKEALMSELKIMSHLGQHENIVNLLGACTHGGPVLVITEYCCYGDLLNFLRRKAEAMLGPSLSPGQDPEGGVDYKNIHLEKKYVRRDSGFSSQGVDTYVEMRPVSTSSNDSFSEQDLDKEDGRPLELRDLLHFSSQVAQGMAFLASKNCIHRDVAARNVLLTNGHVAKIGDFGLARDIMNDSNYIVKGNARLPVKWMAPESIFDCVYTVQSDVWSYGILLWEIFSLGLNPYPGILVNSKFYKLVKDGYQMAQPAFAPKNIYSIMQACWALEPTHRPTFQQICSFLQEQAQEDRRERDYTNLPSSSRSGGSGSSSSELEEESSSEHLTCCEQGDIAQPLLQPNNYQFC
# assay-name: In vitro enzymatic inhibitory activity, CSF-1R kinase (33P-ATP filter-binding)
# Format: biochemical
# test-context: CSF-1R 2.5 nM, 2 h room temperature
# Procedure: Basic reaction buffer: 20 mM hydroxyethylpiperazine ethane sulfonic acid (pH 7.5), 10 mM magnesium chloride, 1 mM EGTA, 0.02% Brij35, 0.02 mg/mL bovine serum albumin, 0.1 mM Na3VO4, 2 mM DTT, 1% DMSO Necessary cofactors were separately added to the CSF-1R kinase reaction. […] 7. The kinase activity was detected by a filter-binding method; […]
Counter-ions that a name gives are not always drawn.
measured-attribute: IC50 (nM)

- compound: "CNC(=O)c1nccc2c(-c3cnc(Nc4ccc(OC(C)C)cc4)cc3C)c[nH]c12 [Compound 3 hydrochloride]"
  assay-system: "CSF-1R (Homo sapiens (Human))"
  unit-text: "nM"
  experimental-value: 34
- compound: "CNC(=O)c1nccc2c(-c3cnc(Nc4ccc(OC5CC5)nc4)cc3C)cn(C)c12 [Compound 2 hydrochloride]"
  assay-system: "CSF-1R (Homo sapiens (Human))"
  unit-text: "nM"
  experimental-value: 26.8
- compound: "CNC(=O)c1nccc2c(-c3cnc(Nc4ccc(OC)nc4)cc3C)c[nH]c12 [Compound 7 hydrochloride]"
  assay-system: "CSF-1R (Homo sapiens (Human))"
  unit-text: "nM"
  experimental-value: 26

I = CNC(=O)c1nccc2c(-c3cnc(Nc4ccc(OC)cc4)cc3C)c[nH]c12 [Compound 8 hydrochloride]
II = CNC(=O)c1nccc2c(-c3cnc(Nc4ccc(C)nc4)cc3C)c[nH]c12 [Compound 6 hydrochloride]
III = CNC(=O)c1nccc2c(-c3cnc(Nc4ccc(OC5CC5)nc4)cc3C)c[nH]c12 [Compound 1 hydrochloride]
Write the entries in order, lowest recorded IC50 first. Present the labels in the sequence the task asks for.
III, I, II
(III: 1.13 nM, I: 10 nM, II: 30 nM)

---

# assay-system: CYP3A4 (Homo sapiens (Human))
# Sequence (P08684 whole entry): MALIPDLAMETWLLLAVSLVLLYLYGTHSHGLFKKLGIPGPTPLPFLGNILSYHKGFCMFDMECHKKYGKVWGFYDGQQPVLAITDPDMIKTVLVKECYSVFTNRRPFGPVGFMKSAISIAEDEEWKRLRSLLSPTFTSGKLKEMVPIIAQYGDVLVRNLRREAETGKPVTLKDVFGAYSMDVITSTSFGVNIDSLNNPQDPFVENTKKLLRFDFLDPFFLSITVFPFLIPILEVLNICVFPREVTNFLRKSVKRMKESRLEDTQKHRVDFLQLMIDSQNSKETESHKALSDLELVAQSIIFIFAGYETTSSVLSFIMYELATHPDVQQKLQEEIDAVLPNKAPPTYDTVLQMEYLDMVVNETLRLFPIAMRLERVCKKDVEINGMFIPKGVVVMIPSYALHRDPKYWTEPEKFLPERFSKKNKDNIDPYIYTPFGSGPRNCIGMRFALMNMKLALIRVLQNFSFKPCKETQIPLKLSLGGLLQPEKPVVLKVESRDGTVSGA
# assay-name: Cytochrome enzyme inhibition study, CYP3A4
# Assay type: in vitro ADME
# test-context: human liver microsomes, mixed probe substrate; read-out: CYP inhibition (IC50, μM) 3A4
# Protocol: A mixed probe substrate of CYP isoenzymes were used to evaluate the inhibitory effect of test compounds on human liver microsomal cytochrome P450 isoenzymes (CYP1A2, CYP2C9, CYP2C19, CYP2D6 and CYP3A4). […] The peak areas of the substrate and the product were detected by liquid chromatography-mass spectrometer (LC/MS/MS). […] The peak area ratio of the metabolite generated by the probe substrate to the internal standard was determined by liquid chromatography-mass spectrometer (LC-MS/MS). […]
Counter-ions that a name gives are not always drawn.
measured-attribute: IC50 (µM)
// return numeric value only (unit: µM, not printed)

# IC50 of CNC(=O)c1nccc2c(-c3cnc(Nc4ccc(OC5CC5)nc4)cc3C)c[nH]c12 [Compound 1 hydrochloride] = 28

---

# assay-name: Pharmacokinetic study in mice
# Format: in vivo, male C57BL/6J mice
# test-context: male, C57BL/6J, plasma, 10 mg/kg; mouse, PO, 10 mpk
Where a name gives a salt, the structure may show the parent alone.
measured-attribute: bioavailability (%)

- compound: "CNC(=O)c1nccc2c(-c3cnc(Nc4ccc(OC5CC5)nc4)cc3C)c[nH]c12 [Compound 1 hydrochloride]"
  experimental-value: 98
- compound: "Cl.FC(F)(F)c1ccc(CNc2ccc(Cc3c[nH]c4ncc(Cl)cc34)cn2)cn1 [PLX-3397, Pexidartinib, reference compound]"
  experimental-value: 74.1

---

# assay-name: Pharmacokinetic study in rats
# Type: in vivo
# test-context: male, SD, plasma, 1 mg/kg; rat, IV, 1 mpk
Where a name gives a salt, the structure may show the parent alone.
measured-attribute: Vd (L/kg)

1 = CNC(=O)c1nccc2c(-c3cnc(Nc4ccc(OC5CC5)nc4)cc3C)c[nH]c12 [Compound 1 hydrochloride]
2 = Cl.FC(F)(F)c1ccc(CNc2ccc(Cc3c[nH]c4ncc(Cl)cc34)cn2)cn1 [PLX-3397, Pexidartinib, reference compound]
Consider 1 and 2 . Which of these has its Vd at a higher number? Refer to your chosen item by its label in the answer.
2
(2: 0.613 L/kg, 1: 0.2 L/kg)

---

# assay-name: Pharmacokinetic study in rats
# Type: in vivo
# test-context: male, SD, plasma, 3 mg/kg; rat, PO, 3 mpk
Where a name gives a salt, the structure may show the parent alone.
measured-attribute: Cmax (µM)
// return numeric value only (unit: µM, not printed)

# Cmax of CNC(=O)c1nccc2c(-c3cnc(Nc4ccc(OC5CC5)nc4)cc3C)c[nH]c12 [Compound 1 hydrochloride] = 27.4

---

# assay-name: Pharmacokinetic study in rats
# Assay type: in vivo
# test-context: male, SD, plasma, 10 mg/kg; rat, PO, 10 mpk
measured-attribute: AUC(0-t) (µM·h)
// return numeric value only (unit: µM·h, not printed)

# AUC(0-t) of Cl.FC(F)(F)c1ccc(CNc2ccc(Cc3c[nH]c4ncc(Cl)cc34)cn2)cn1 [PLX-3397, Pexidartinib, reference compound] = 70.2

---

# assay-name: Pharmacokinetic study in mice
# Format: in vivo, male C57BL/6J mice
# test-context: male, C57BL/6J, plasma, 1 mg/kg; mouse, IV, 1 mpk
Where a name gives a salt, the structure may show the parent alone.
measured-attribute: AUC(0-t) (µM·h)

I = Cl.FC(F)(F)c1ccc(CNc2ccc(Cc3c[nH]c4ncc(Cl)cc34)cn2)cn1 [PLX-3397, Pexidartinib, reference compound]
II = CNC(=O)c1nccc2c(-c3cnc(Nc4ccc(OC5CC5)nc4)cc3C)c[nH]c12 [Compound 1 hydrochloride]
Consider I and II . Which of these has its AUC(0-t) at a higher number? Refer to your chosen item by its label in the answer.
II

---

# assay-name: Pharmacokinetic study in rats
# Assay type: in vivo
# test-context: male, SD, plasma, 1 mg/kg; rat, IV, 1 mpk
Counter-ions that a name gives are not always drawn.
measured-attribute: half-life (h)

A = CNC(=O)c1nccc2c(-c3cnc(Nc4ccc(OC5CC5)nc4)cc3C)c[nH]c12 [Compound 1 hydrochloride]
B = Cl.FC(F)(F)c1ccc(CNc2ccc(Cc3c[nH]c4ncc(Cl)cc34)cn2)cn1 [PLX-3397, Pexidartinib, reference compound]
Could you determine which record has the numerically smaller half-life? Candidates: A and B Refer to your chosen item by its label in the answer.
B
